All figures here come from patent US11166460B2.

I'd be grateful if you could share measured melting point for these entries.

Quick note, melting point for O=C(N/C(=C\c1ccccc1)C(=O)N1CCC(O)(c2ccc(Br)cc2)CC1)c1cccc([N+](=O)[O-])c1 [Compound 11] landed at 128 to 129 °C

Quick note, melting point for O=C(N/C(=C\c1ccccc1)C(=O)N1CCC(O)(c2ccc(Br)cc2)CC1)C1CCCCC1 [Compound 2] landed at 124 to 126 °C

Quick note, melting point for O=C(NCc1ccc(Br)cc1)/C(=C/c1ccccc1)NC(=O)c1ccccc1 [Compound 46] landed at 192 to 194 °C

Quick note, melting point for O=C(N/C(=C\c1ccccc1C(F)(F)F)C(=O)N1CCC(O)(c2ccc(Br)cc2)CC1)c1ccccc1 [Compound 22] landed at 149 to 151 °C

Quick note, melting point for Cc1nnsc1/C=C(\NC(=O)c1ccccc1)C(=O)O [Compound 71] landed at 215 to 217 °C

Quick note, melting point for CONC(=O)/C(=C/c1csc(C2CCN(C(=O)OC(C)(C)C)CC2)n1)NC(=O)c1ccccc1 [Compound 42] landed at 111 to 113 °C

Quick note, melting point for CNC(=O)/C(=C/c1csc(C2CCN(C(=O)OC(C)(C)C)CC2)n1)NC(=O)c1ccccc1 [Compound 41] landed at 107 to 109 °C

Quick note, melting point for Cc1nnsc1/C=C(\NC(=O)c1ccccc1)C(=O)N1CCC(O)(c2ccc(Br)cc2)CC1 [Compound 27] landed at 212 to 214 °C

Quick note, melting point for O=C(N/C(=C\c1c[nH]cn1)C(=O)N1CCC(O)(c2ccc(Br)cc2)CC1)c1ccccc1 [Compound 26] landed at 176 to 178 °C

Quick note, melting point for CCOC(=O)c1csc(C2CCN(C(=O)/C(=C/c3ccccc3)NC(=O)c3ccccc3)CC2)n1 [Compound 30] landed at 114 to 115 °C

Quick note, melting point for O=C(NCc1ccc(Cl)cc1)/C(=C/c1ccccc1)NC(=O)c1ccccc1 [Compound 56] landed at 202 to 204 °C
